Data origin: PubChem BioAssay (NCI)

Provide the reported TGI of each item.
- System: SNB-75 CNS
- Assay procedure: NCI tumour cell line growth inhibition, 48 h

Worked set:
COc1cccc(C2C(C(=O)O)=C(CO)Oc3cc4c(cc32)OCO4)c1 (stereo not drawn) :: > 100 µM
O=C(O)/C=C/c1cnc[nH]1 :: > 500 µM

Next compound, please.
Task item: Report TGI for O=C1Nc2ccccc2/C1=C/c1ccccc1 tested on SNB-75 CNS.
Reply: 33.8 µM

###

- Tested on: HOP-92 NSCLC
- Assay procedure: NCI tumour cell line growth inhibition, 48 h
Measurement type: TGI

COc1ccc(CC2NCCc3cc(OC)c(OC)cc32)cc1 (centres undefined) :: > 100 µM
O=C1/C(=C/c2ccc(Cl)cc2)N=C(c2ccccc2)N1C1Nc2cc3c(cc2S1)NC(N1C(=O)/C(=C/c2ccc(Cl)cc2)N=C1c1ccccc1)S3 (centres undefined) :: > 100 µM

Record TGI for all entries; do not skip any.
1. O=c1oc2cccnc2n1CCN1CCN(c2ccc(Oc3ccccc3)cc2)CC1
2. O=C(O)CSc1nnc(CCCCCCCCc2nnc(SCC(=O)O)o2)o1
3. N#Cc1c(NC(=O)c2cccc3ccccc23)sc2c1CCCC2
4. O=C1Cc2ccccc2N1c1c(Cl)cccc1Cl
5. COc1cc2c(oc(=O)c3cc4ccoc4c(OC)c32)c2cccc(O)c12
6. O=C(CC/C(CC(=O)c1ccc(Cl)cc1)=N/O)Nc1ccc(Cl)c(Cl)c1
7. CO/N=C(\COc1ccc2c(c1)oc(=O)c1cc(OC)ccc12)c1cccc(OC)c1
8. COc1cc(OC)c2cc(C(=O)O)c(=O)oc2c1

Reply:
> 100 µM
> 100 µM
> 25 µM
> 100 µM
> 100 µM
> 100 µM
> 100 µM
> 100 µM

Record TGI for all entries; do not skip any.
1. Cc1cc(NCCCCNc2ccnc3cc(Cl)ccc23)nc(Nc2ccc(C(=O)N3CCCC3)cc2)n1
2. C[N+](C)(C)C1(C(=O)[O-])CC1
3. Clc1ccc2c(c1)CC1C[N+]3=C(CCCC3)C1=C2 (centres undefined)
4. S=P1(c2ccccc2)Nc2ccc(Cl)cc2N1 (centres undefined)
5. COc1cc(C=Nc2ccc(S(N)(=O)=O)cc2)cc(OC)c1
6. COc1ccc(-c2oc3cc(OC)c(OC)c(OC)c3c(=O)c2OC)cc1OC
7. NC(CCCCN=Cc1nc(-c2ccccc2)oc1O)C(=O)O (centres undefined)

Reply:
3.7 µM
> 100 µM
> 100 µM
71.9 µM
> 50 µM
> 100 µM
> 100 µM

Record TGI for all entries; do not skip any.
1. O=C1C2C(C(=O)N1c1ccccc1)C1(c3ccccc3)OC2(c2ccccc2)c2ccccc21 (centres undefined)
2. CC(=O)[O-].[Ni].c1ccc(/C(=N\Nc2ccccn2)c2ccccn2)cc1
3. O=C(N1CCC(CN=c2cc3n(-c4ccc(Cl)cc4)c4ccccc4nc-3cc2Nc2ccc(Cl)cc2)CC1)N1CC1

Reply:
["> 100 µM", "22.3 µM", "37 µM"]

Record TGI for all entries; do not skip any.
1. O=C1C=CC[C@H](/C=C/C[C@@H](O)C[C@H](O)/C=C/c2ccccc2)O1
2. O=c1oc2cc(O)ccc2cc1-c1nc2ccccc2s1
3. COc1cc2c3c(n(CCCNC(=O)OCC4c5ccccc5-c5ccccc54)c(=O)c2cc1OC)-c1cc2c(cc1C3=O)OCO2
4. COc1cc(C2CC(c3ccc(Nc4ccnc5cc(Cl)ccc45)cc3)=NN2C=O)cc(OC)c1OC (centres undefined)

Reply:
["13.7 µM", "> 100 µM", "> 100 µM", "5.59 µM"]
